system: velvetleaf; experiment: Test B pre-/postemergence herbicide test; format: in vivo, Abutilon theophrasti; conditions: 500 g ai/ha; visual rating 0-100, 0 no effect, 100 complete control; preemergence
quantity kind: Plant response rating, Velvetleaf
Format: numeric value only, no unit, no commentary.

Field: example entries. Status: answers known.
CCCn1nc(C(C)(C)C)cc1C(=O)Nc1cccc(C(C)=NO)c1 :: 20
CC(=O)c1cccc(NC(=O)c2cc(C(C)(C)C)nn2CCF)c1 :: 80
CCOC(=O)c1cccc(NC(=O)c2sc(C(C)(C)C)nc2CC)c1 :: 0
CCOc1cccc(NC(=O)c2cn(C(C)(C)C)nc2C)c1 :: 10
CCc1nc(C(C)(C)C)sc1C(=O)Nc1cccc(C(=O)NCCF)c1 :: 50

Given "CC(=O)c1cccc(NC(=O)c2sc(C(C)(C)C)nc2C)c1" , state its recorded Plant response rating, Velvetleaf. 20

Given the compound "CC(=NO)c1cccc(NC(=O)c2cc(C(C)(C)C)nn2C)c1" , what is its reported Plant response rating, Velvetleaf? 0

---

Measured Cupgrass, Woolly plant response rating of individual entries
test system: woolly cupgrass; assay: Test C pre-/postemergence herbicide test; type: in vivo, Eriochloa villosa; settings: Postemergence, 500 g ai/ha; scale 0 to 100

Study these solved cases before continuing.
C#CCNC(=O)c1cccc(NC(=O)c2cc(C(C)(C)C)nn2CC)n1 :: 30
CCNC(=O)c1cccc(NC(=O)c2cc(C(C)(C)C)nn2CC(F)(F)F)c1 :: 60
CCNC(=O)c1cccc(NC(=O)c2cc(C(C)(C)C)nn2CC)n1 :: 50

Attention now turns to another entry.
Consider the molecule shown here: "CCn1nc(C(C)(C)C)cc1C(=O)Nc1cccc(C(=O)OCCF)c1" What is its recorded Cupgrass, Woolly plant response rating? 80

---

Ducksalad plant response rating values, listed per item
test system: ducksalad; assay: Test C flooded paddy test; format: in vivo, Heteranthera limosa; details: 62 g ai/ha, scale 0 to 100
Note: the reply should be a number with no unit written.

Sample answers from the record:
CCN(C(C)=O)C(=O)c1ccc(F)c(NC(=O)c2cc(C(C)(C)C)nn2CC)c1 :: 15
CCN(C)C(=O)c1cccc(NC(=O)c2nn(C(C)C)nc2C)c1 :: 20
CCn1nc(C(C)(C)C)cc1C(=O)Nc1ccc(OC)c(OC)c1 :: 35

Turning to the following molecule.
I would be grateful if you could share the reported Ducksalad plant response rating for "CCNC(=O)c1cc(NC(=O)c2cc(C(C)(C)C)nn2CC)c(F)cc1F" . 0

---

tested on: giant foxtail; assay: Test B pre-/postemergence herbicide test; format: in vivo, Setaria faberi; details: 125 g ai/ha; 0 is no effect, 100 is complete control; preemergence
Overview of recorded Plant response rating (0 to 100 scale), Foxtail, Giant for various compounds
Form field (numeric): enter value without unit.

Consider the following illustrative entries.
CN(C)C(=O)c1cccc(NC(=O)c2nn(C(C)(C)C)nc2Br)c1 :: 90
CCc1nn(C(C)(C)CC)nc1C(=O)Nc1cccc(OC(F)(F)F)c1 :: 10

// query Plant response rating (0 to 100 scale), Foxtail, Giant value for entry "CCN(C)C(=O)c1cccc(NC(=O)c2nn(C(C)C)nc2C)c1" 30

Please give the measured Plant response rating (0 to 100 scale), Foxtail, Giant for this compound: "C#CCNC(=O)c1ccc(F)c(NC(=O)c2nn(C(C)(C)C)nc2CC)c1" 0

Request the reported Plant response rating (0 to 100 scale), Foxtail, Giant associated with "CCc1nn(C(C)C)nc1C(=O)Nc1cccc(C(=S)N(C)C)c1" 70

Plant response rating (0 to 100 scale), Foxtail, Giant for "CCc1nn(C(C)C)nc1C(=O)Nc1cccc(C(=O)N2CCCCC2)c1" ? 30

Give the measured Plant response rating (0 to 100 scale), Foxtail, Giant of "CCc1nn(C(C)C)nc1C(=O)Nc1cccc(C(=O)N(C)CC)c1" . 90

---

test system: prickly sida; test: Test E pre-/postemergence herbicide test; assay type: in vivo, Sida spinosa; details: Preemergence, 125 g ai/ha; scale 0 to 100
quantity kind: Plant response rating, Prickly Sida
// no unit, no text: just the number

Reference set, count: 3
CCc1nn(C(C)C)nc1C(=O)Nc1cccc(C(=O)N(C)CC)c1 :: 100
CCN1N=C(C(C)(C)C)CC1C(=O)Nc1cc(C(=O)N(C)C)ccc1F (stereo not shown) :: 80
CCc1nn(C(C)(C)C)cc1C(=O)Nc1cc(C(=O)N(C)C)ccc1F :: 70

Next molecule, please.
Can you look up the measured Plant response rating, Prickly Sida of "CCNC(=O)c1ccc(F)c(NC(=O)c2cn(C(C)(C)C)nc2CC)c1" for me? 70

---

system: morningglory; assay: Test B pre-/postemergence herbicide test; assay type: in vivo, Ipomoea coccinea; conditions: postemergence, 500 g ai/ha; scale 0 to 100, 0 is no effect, 100 is complete control
Note to self: use True only for Morningglory plant response rating readings below 30; a reading exactly at 30 still gets False.

Some solved cases for reference:
CCn1nc(C(C)(C)C)cc1C(=O)Nc1ccnc(C(=O)N(C)C)c1 [Compound 256] :: True
CCOC(=O)c1cccc(NC(=O)c2cc(C3(C)CC3)nn2CC)c1 [Compound 295] :: False
C=CCNC(=O)c1cccc(NC(=O)c2cc(C(C)(C)C)nn2C)n1 [Compound 318] :: False
CCNC(=O)c1cc(NC(=O)c2cc(C(C)(C)C)nn2CC)c(F)cc1F [Compound 252] :: True
CCc1nn(C(C)(C)C)cc1C(=O)Nc1cccc(C(=O)N(C)C)n1 [Compound 292] :: True

Proceed to the following item.
# TODO verify Morningglory plant response rating < 30 strictly for this molecule: CCn1nc(C(C)(C)C)cc1C(=O)Nc1ccc(OC)c(OC)c1 [Compound 298] False

---

Oat, Wild plant response rating values by entry
System: wild oat
Test: Test B postemergence herbicide test
Assay type: in vivo, Avena fatua
Conditions: Postemergence, 500 g ai/ha; scale 0 (no effect) to 100 (complete control)
Procedure: At the same time, plants selected from these crop and weed species and also blackgrass (Alopecurus myosuroides Huds.), wheat (Triticum aestivum L.) and wild oat (Avena fatua L.) were treated with postemergence applications of test chemicals formulated in the same manner. […] Treated plants and controls were maintained in a greenhouse for 13 to 15 days, after which time all species were compared to controls and visually evaluated. […]
Hey, just send me the number, nothing else.

Consider the worked cases shown below.
C=CCNC(=O)c1cccc(NC(=O)c2nn(C(C)C)nc2CC)c1 :: 20
Cc1nn(C(C)(C)C)nc1C(=O)Nc1cccc(C(=O)N2CC=CC2)n1 :: 40

What Oat, Wild plant response rating appears in the records for this compound with wild oat? "CCc1nn(C(C)(C)CC)nc1C(=O)Nc1cccc(OC(F)(F)F)c1" 40

Kindly state the measured Oat, Wild plant response rating obtained for "CCc1nn(C(C)C)nc1C(=O)Nc1cccc(C(=O)N(C)CC)c1" with wild oat. 0

---

test system: eastern black nightshade; assay: Test C pre-/postemergence herbicide test; assay type: in vivo, Solanum ptycanthum; settings: 125 g ai/ha; scale 0 (no effect) to 100 (complete control); visual, 12 to 14 days; preemergence
The reader will find reported Plant response rating, Nightshade values listed item by item below.
# answer = number (no unit)

Given the compound "CCCCOc1cccc(NC(=O)c2cc(C(C)(C)C)nn2CC)c1" , what is its reported Plant response rating, Nightshade? 85

Which Plant response rating, Nightshade is reported for this compound? CCN1N=C(C(C)(C)C)CC1C(=O)Nc1cc(C(=O)N2CC=CC2)ccc1F (racemic) 35

Can you share its Plant response rating, Nightshade? I mean this compound: "CCn1nc(C(C)(C)C)cc1C(=O)Nc1cccc(C(=O)NC2CC2)c1" 90

Given "CCN(CC)C(=O)c1cccc(NC(=O)c2sc(C(C)(C)C)nc2C)c1" , state its recorded Plant response rating, Nightshade. 95

# get_value(readout='Plant response rating, Nightshade', item= "C=CCNC(=O)c1cccc(NC(=O)c2cc(C(C)(C)C)nn2C)n1" ) 90

---

Some compounds, each annotated with its measured Morningglory plant response rating.
test system: morningglory; assay: Test B pre-/postemergence herbicide test; type: in vivo, Ipomoea coccinea; settings: postemergence, 125 g ai/ha; visual rating, scale 0 (no effect) to 100 (complete control)
Answer with the value's number alone.

// known answers, use as guide
CCn1nc(C(C)(C)C)cc1C(=O)Nc1ccnc(C(=O)N2CC=CC2)c1 :: 10
C#CCNC(=O)c1cc(NC(=O)c2cc(C(C)(C)C)nn2CC)ccn1 :: 0
C#CCNC(=O)c1cccc(NC(=O)c2cc(C(C)(C)C)nn2CC)n1 :: 0
CCN(CC)C(=O)c1ccnc(NC(=O)c2cc(C(C)(C)C)nn2CC)c1 :: 10
CCn1nc(C(C)(C)C)cc1C(=O)Nc1cccc(C(=O)N(C)C)c1 :: 0

Value wanted: Morningglory plant response rating (morningglory) of entry "CCNC(=O)c1ccc(F)c(NC(=O)c2sc(C(C)(C)C)nc2CC)c1" 30

Lab note: need Morningglory plant response rating for "CCOC(=O)c1cccc(NC(=O)c2sc(C(C)(C)C)nc2CC)c1" on morningglory, anyone have it? 20

Return Morningglory plant response rating measured with morningglory given this compound: "CCn1nc(C(C)(C)C)cc1C(=O)Nc1nc(C(=O)N2CC=CC2)ccc1F" 0
